The molecules below have reported IC50 for UniProtKB P36888.
Sequence (P36888 27-993, species assumed): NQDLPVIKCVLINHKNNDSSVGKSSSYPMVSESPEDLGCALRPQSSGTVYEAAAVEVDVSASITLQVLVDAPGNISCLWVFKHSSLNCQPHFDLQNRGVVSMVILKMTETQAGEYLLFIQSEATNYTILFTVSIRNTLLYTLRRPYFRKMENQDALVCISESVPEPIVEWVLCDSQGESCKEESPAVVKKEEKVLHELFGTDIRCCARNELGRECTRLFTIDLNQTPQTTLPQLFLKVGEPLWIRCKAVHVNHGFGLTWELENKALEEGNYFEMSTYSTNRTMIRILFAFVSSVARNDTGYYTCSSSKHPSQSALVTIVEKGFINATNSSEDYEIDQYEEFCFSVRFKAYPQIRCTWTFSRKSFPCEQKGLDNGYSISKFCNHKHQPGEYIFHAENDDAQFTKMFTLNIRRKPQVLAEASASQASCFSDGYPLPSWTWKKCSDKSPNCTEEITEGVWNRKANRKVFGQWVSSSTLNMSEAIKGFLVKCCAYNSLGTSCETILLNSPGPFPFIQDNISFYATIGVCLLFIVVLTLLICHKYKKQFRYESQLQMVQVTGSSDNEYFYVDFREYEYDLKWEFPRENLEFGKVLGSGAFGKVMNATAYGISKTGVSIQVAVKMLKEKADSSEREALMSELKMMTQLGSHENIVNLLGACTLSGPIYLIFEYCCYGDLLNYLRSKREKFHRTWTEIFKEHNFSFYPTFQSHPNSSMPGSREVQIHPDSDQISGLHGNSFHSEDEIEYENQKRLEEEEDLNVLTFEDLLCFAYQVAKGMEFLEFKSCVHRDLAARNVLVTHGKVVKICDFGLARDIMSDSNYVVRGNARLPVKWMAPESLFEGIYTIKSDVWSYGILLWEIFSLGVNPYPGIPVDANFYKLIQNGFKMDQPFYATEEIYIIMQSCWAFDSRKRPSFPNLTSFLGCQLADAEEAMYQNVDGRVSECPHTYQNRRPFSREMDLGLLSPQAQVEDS

molecule: C[C@@H](CC(F)(F)F)Nc1ncc2c(-c3ccc([S@](C)(=N)=O)nc3)cc([C@H]3CC[C@H](O)CC3)n2n1
IC50: ≤ 100 nM
//
molecule: CNC(=O)c1cncc(-c2cc([C@H]3CC[C@H](O)CC3)n3nc(N[C@@H](C)CC(F)(F)F)ncc23)c1
IC50: 1000 to 10000 nM
//
molecule: COC[C@H](C)Nc1ncc2c(-c3cnn([C@H]4CCOC4)c3)cc([C@H]3CC[C@H](O)CC3)n2n1
IC50: 100 to 1000 nM
//
molecule: COCC1(Nc2ncc3c(-c4ccc(CN5CCN(C)CC5)cc4)cc(C4CCC(O)CC4)n3n2)CC1 (stereo not shown)
IC50: 100 to 1000 nM
